Assignment: determine reported melting point for the given compounds.

compound CC1CCN(c2c(F)cc3c(=O)c(C(=O)O)cn4c3c2CCC4C)CC1 (stereo not given) , melting point observed: 266 to 268 °C

compound "Cc1c(-c2ccccc2F)[nH]c(N)c1C#N" , melting point observed: 117 to 118 °C

compound "CC(C)[C@H](NC(=O)N(C)Cc1csc(N)n1)C(=O)N[C@@H](Cc1ccccc1)[C@H](O)[C@H](O)[C@H](Cc1ccccc1)NC(=O)OC(C)(C)C" , melting point observed: 103 to 107 °C

compound "CC(C)(C)c1ccc(NC(=O)Nc2cccc(C(=O)O)c2)cc1" , melting point observed: 147 to 148 °C

compound "COc1ccc(C(=O)Nc2cc(C(F)(F)F)c(Br)cc2S(N)(=O)=O)cc1" , melting point observed: 321 °C

###

Assignment: determine reported melting point for the given compounds.
Please reply with the bare figure in °C and do not write the unit itself.

compound "CCCCCCCCCCCCCCCCCCc1ccc(O)c([N+](=O)[O-])c1" , melting point observed: 71

compound CCC(NC(=S)NCc1ccc(C(C)(C)C)cc1)c1ccc(NS(C)(=O)=O)c(F)c1 (stereo not given) , melting point observed: 85

###

measured-quantity: melting point

molecule "CC(C)(C)OC(=O)CCOCCCc1cccc(-c2nc(=O)c3ccccc3s2)n1" , melting point observed: 71 to 71.9 °C

molecule "CCCCC(=NNC(=O)OCC)c1ccncc1" , melting point observed: 102 °C

molecule "CCOC(=O)c1cn(-c2ccc(F)cc2)c2cc(-c3ccncc3)ccc2c1=O" , melting point observed: 252 to 253 °C

molecule "COc1cc(CCC(=O)CC(=O)CCc2ccc(O)c(OC)c2)ccc1O" , melting point observed: 92 to 94 °C

molecule "CC(C)Cn1c(CNC(=O)OC(C)(C)C)c(-c2ccccc2)c2cc(/C=C/C(=O)O)ccc2c1=O" , melting point observed: 172 to 173 °C

molecule "COCc1ccc(N)c(O)c1" , melting point observed: 108 °C

molecule "O=Cc1cccc([N+]([O-])=Cc2cccc([N+](=O)[O-])c2)c1" , melting point observed: 195 to 197 °C

molecule "CC(C)OC(=O)c1cc(-n2c(=O)c3c(n(C)c2=O)CCC3)c(F)cc1F" , melting point observed: 112 to 115 °C

molecule "CNCCCOc1cc(F)c(-c2c(Cl)nc(-c3cnccn3)nc2N[C@@H](C)C(F)(F)F)c(F)c1" , melting point observed: 48 to 50 °C

molecule "CCCCCCCCCCCCCCCCCCOc1cc(OCCCOc2ccc(C(C)(C)C)cc2)cc(N(CC(=O)OC)CC(=O)OC)c1" , melting point observed: 56 to 58 °C

molecule CC(C)CCNC1(c2ccccc2Cl)C(=O)Nc2ccc(Cl)cc21 (stereo not given) , melting point observed: 152 °C

molecule Cc1ccc(C)c(-c2ccc(S(=O)(=O)N3c4ccccc4CC3C(=O)NCCOc3ccc(CC(=O)O)cc3)cc2)c1 (stereo not given) , melting point observed: 81 to 84 °C

molecule CC1CC2=CC(=O)C=CC2(C)C2C(=O)CC3(C)C(=O)CCC3C12 (stereo not given) , melting point observed: 257 to 259 °C

molecule "CCOC(=O)c1cc2c([nH]c3ccccc32)c(CNc2ccccc2)n1" , melting point observed: 256 to 258 °C

molecule "CC(C)(C)N1CCCC1=C(C#N)c1ccc(Cl)cc1" , melting point observed: 150 to 153 °C

molecule "Cc1c(F)c(F)cc2c1c(=O)c(C(=O)O)cn2-c1ccc(F)cc1" , melting point observed: 255 to 257 °C

molecule "CC1(C)CC(OC(=O)Nc2ccccc2)CC(C)(C)N1OC(=O)Nc1ccccc1" , melting point observed: 188 to 190 °C

molecule "O=c1ccc2ccccc2n1O" , melting point observed: 188 °C

molecule "c1ccc(Oc2ccc(OCc3nc(C4CC4)no3)cc2)cc1" , melting point observed: 99 °C

molecule "CN(C)C(=O)c1cc(-c2ccc(-c3ccco3)cc2)n(-c2ccc(S(C)(=O)=O)c(F)c2)n1" , melting point observed: 167 to 168 °C

###

Assignment: determine reported melting point for the given compounds.

compound "CN1CCN(C(=O)c2cccn2Cc2ccccc2N)CC1" , melting point observed: 139 to 141 °C

compound "CCCCNC(=O)n1c(=S)[nH]c2ccccc21" , melting point observed: 179 to 180 °C

compound CC(C)C1=C(C#N)C(c2cccc3nocc23)c2c[nH]nc2N1 (stereo unspecified) , melting point observed: 245 °C

compound CC1(O)OC(=O)C(c2c(F)cc(F)cc2F)=C1c1cccs1 (stereo unspecified) , melting point observed: 134 to 136 °C

compound "N#Cc1ccc(-c2ccc(C(=O)CCC(=O)O)cc2)cc1" , melting point observed: 191 to 193 °C

compound "CCN(CC)c1nc(-c2ccc3c(c2)OCO3)nc2sc(C#N)c(C)c12" , melting point observed: 199 to 201 °C

compound "O=C1OC(=O)C(c2ccc(Cl)cc2)=C1Cl" , melting point observed: 110 to 112 °C

compound "NCCn1c(NC2CCN(Cc3ccccc3)CC2)nc2cccnc21" , melting point observed: 102 °C

compound COC(=O)C(O)C(NC(=O)OC(C)(C)C)C1CC1 (stereo unspecified) , melting point observed: 93 °C

compound CS(=O)c1ncc(Cl)cn1 (stereo unspecified) , melting point observed: 48 °C

compound COC(=O)[C@H](Cc1ccc(OCC2CCCN(C(=O)OC(C)(C)C)C2)cc1)NC(=O)[C@@H]1CCCN1S(=O)(=O)c1ccc(C)cc1 (stereo partly specified) , melting point observed: 82 to 84 °C

###

measured-quantity: melting point

compound "CC(C)c1nc(COC2=CCCCC2)n(C)c1Sc1cc(Cl)cc(Cl)c1" , melting point observed: 69 to 71 °C

compound "CCNC(=O)c1nc2n(n1)-c1ccc(Cl)cc1C(c1ccccc1F)=NC2" , melting point observed: 232 to 234 °C

compound "N#CN=C(Nc1ccccc1Br)Nc1ccc(C#N)c(Br)c1O" , melting point observed: 142 °C

compound CC(C)CC1(CCCCN2CCc3sccc3C2)C(=O)Nc2ccccc21 (stereo unspecified) , melting point observed: 114 to 116 °C

compound OC1Cc2cccc(Br)c2C1 (stereo unspecified) , melting point observed: 80 °C

compound "O=Cc1ccc(-c2ccc3nc[nH]c(=O)c3c2)o1" , melting point observed: 267 °C

compound "Clc1ccc(Oc2cncc3sc(-c4nnn[nH]4)cc23)cc1" , melting point observed: 250 to 254 °C

compound OC(c1ccccc1)c1cc(Cl)ccc1CNC(=S)NCCc1ccccc1 (stereo unspecified) , melting point observed: 97 °C

compound CCOC(=O)c1ccc2c(c1)S(=O)c1ccccc1-2 (stereo unspecified) , melting point observed: 210 to 213 °C

compound "CN(C)CC(=O)N1c2ccccc2N(C)S(=O)(=O)c2ccc(Cl)cc21" , melting point observed: 138 to 139 °C

compound "OC1CCN(Cc2ccc(Br)cn2)CC1" , melting point observed: 52 to 54 °C

###

Assignment: determine reported melting point for the given compounds.

compound "CCOC(=O)c1c(-c2cccc(Cl)c2)noc1C" , melting point observed: 71 to 73 °C

compound "C#CCOc1ccc(C)cc1S(=O)(=O)NC(=O)Nc1nc(Cl)cc(OC)n1" , melting point observed: 202 to 204 °C

compound O=C1CCC(N2C(=O)c3cccc(OCc4ccc(CN5CCC(c6ccc(F)cc6F)CC5)cc4)c3C2=O)C(=O)N1 (stereo not given) , melting point observed: 153 to 155 °C

compound "Cc1nc(NC(=O)c2ccc(F)cc2Cl)sc1C(=O)NCc1ccccc1" , melting point observed: 95 to 96 °C

compound "CN(C)c1nc(N(C)C)nc(N(C)Cc2ccccc2O)n1" , melting point observed: 169 to 171 °C

compound COC(=O)c1cccc(CN2C(=O)C3(COc4cc5c(cc43)CCO5)c3ccccc32)c1 (stereo not given) , melting point observed: 97 to 98 °C

compound NC1=NS(=O)N=C1NCCCN(Cc1cccc(F)c1)c1ccccn1 (stereo not given) , melting point observed: 160 to 162 °C

compound "COc1ccc2c(OC)c(C(C)C)cc(Br)c2c1" , melting point observed: 108 to 110 °C

compound "COc1cc(N)c(I)cc1C(=O)O" , melting point observed: 181 °C

compound CC(C)(C)c1ccc(OC2CCOC2)c(N)c1 (stereo not given) , melting point observed: 79 to 82 °C

###

Assignment: determine reported melting point for the given compounds.

compound "COc1cc(Cc2cc3cc(Cl)ccc3n2S(=O)(=O)c2ccc(C(C)C)cc2)ccc1C(=O)O" , melting point observed: 67 °C

compound COC(=O)C1CSC(c2ccc(Oc3ccc(C)cc3O)cc2)N1 (centres undefined) , melting point observed: 134 to 135 °C

compound CN(C)C(=O)c1cccc(C(C(N)=O)c2cccc(Br)c2)c1 (centres undefined) , melting point observed: 119 to 120 °C

compound "COCCO[C@@H]1c2ccn3c(Cl)c(C)nc3c2N(C(C)=O)[C@H](c2ccccc2)[C@H]1OC(=O)C(C)(C)C" , melting point observed: 145 to 147 °C

compound "O=C(CCl)N1CC=C(c2cccc(C(F)(F)F)c2)n2ncc(Cl)c21" , melting point observed: 116 to 119 °C

compound "CCOc1nn(-c2cc(C(F)(F)F)ccn2)cc1CCCOc1ccccc1CC(=O)O" , melting point observed: 121 to 122 °C

compound "Cc1[nH]cnc1/C=C1\CCc2c(c3cccc4c3n2CCC4)C1=O" , melting point observed: 260 to 264 °C

compound "Cc1cc2cccc(N=C3SC[C@@H]4Cc5ccccc5CN34)c2cn1" , melting point observed: 156 °C

compound "Nc1cc(C=O)nc(CC2CC2)c1F" , melting point observed: 99 to 100 °C

compound CC(C)c1nc(CN2C(=O)C3(COc4cc5c(cc43)OCO5)c3cccc(C#N)c32)cs1 (centres undefined) , melting point observed: 162 to 163 °C

compound "COCCOC(=O)c1cc(NC(=O)OCc2ccccc2)ccc1OCCOC" , melting point observed: 104 to 105 °C

compound "O=[N+]([O-])c1cnn(-c2c(Cl)cc(C(F)(F)F)cc2Cl)n1" , melting point observed: 105 °C

compound "COc1cccc(-c2nc3n(n2)Cc2cc(OC)c(OC)cc2-3)c1" , melting point observed: 186 to 187 °C

compound CS(=O)(=O)c1ccc(N2CC(O)(C(F)(F)F)N=C2c2ccc3c(c2)OCO3)cc1 (centres undefined) , melting point observed: 200 to 202 °C

compound "CN1CCN(c2cccc3ccc(-n4cnc5ccccc54)cc23)CC1" , melting point observed: 148 to 150 °C

compound "Cc1cccc(-n2nc(C)cc2-c2ccnc(C#N)c2)c1" , melting point observed: 128 to 130 °C

compound "Nc1c(Cl)cc(Nc2ncnc3cnc(N[C@H]4CC[C@H](C(=O)O)CC4)nc23)cc1Cl" , melting point observed: 339 °C

compound O=C(NC1N=C(c2ccccc2F)c2ccccc2NC1=O)c1ccc(Cl)cc1 (racemic) , melting point observed: 258 to 259 °C

compound "COCOc1ccc(CCc2c(CC(N)=O)cc(OC)c(OC)c2OC)cc1OCc1ccccc1" , melting point observed: 73 to 74 °C

Source of measurements: a melting point compilation (Tetko et al.; mined from patent text by program, amines drawn as free bases though some values may be those of a salt)
